Biological target: fibrin clot (Homo sapiens, UniProt P02671+P02675+P02679)
Construct: admixing 100 μl of fresh human plasma with 3 units thrombin (Sigma Chemical); from tissue; host or cells: fresh human plasma clotted with thrombin (Sigma Chemical)
Sequence (P02671 20-644 isoform P02671-2 limits assumed): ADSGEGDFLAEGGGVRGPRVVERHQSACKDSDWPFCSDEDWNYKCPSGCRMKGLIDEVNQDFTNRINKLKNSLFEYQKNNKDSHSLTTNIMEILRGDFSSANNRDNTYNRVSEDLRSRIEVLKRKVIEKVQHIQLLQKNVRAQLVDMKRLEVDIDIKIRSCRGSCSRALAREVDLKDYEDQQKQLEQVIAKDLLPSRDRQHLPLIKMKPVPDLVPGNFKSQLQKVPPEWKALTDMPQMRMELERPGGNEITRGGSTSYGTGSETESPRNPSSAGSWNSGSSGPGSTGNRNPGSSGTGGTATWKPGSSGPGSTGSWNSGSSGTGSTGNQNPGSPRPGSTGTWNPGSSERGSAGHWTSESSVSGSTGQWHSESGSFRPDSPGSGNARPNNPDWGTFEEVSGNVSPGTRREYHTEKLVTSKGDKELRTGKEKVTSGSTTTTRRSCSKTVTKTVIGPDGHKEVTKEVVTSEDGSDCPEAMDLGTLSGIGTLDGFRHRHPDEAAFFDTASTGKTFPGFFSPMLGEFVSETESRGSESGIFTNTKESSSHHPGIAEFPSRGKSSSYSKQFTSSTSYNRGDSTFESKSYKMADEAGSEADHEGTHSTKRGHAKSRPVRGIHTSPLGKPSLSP
Sequence (P02675 45-491 limits assumed): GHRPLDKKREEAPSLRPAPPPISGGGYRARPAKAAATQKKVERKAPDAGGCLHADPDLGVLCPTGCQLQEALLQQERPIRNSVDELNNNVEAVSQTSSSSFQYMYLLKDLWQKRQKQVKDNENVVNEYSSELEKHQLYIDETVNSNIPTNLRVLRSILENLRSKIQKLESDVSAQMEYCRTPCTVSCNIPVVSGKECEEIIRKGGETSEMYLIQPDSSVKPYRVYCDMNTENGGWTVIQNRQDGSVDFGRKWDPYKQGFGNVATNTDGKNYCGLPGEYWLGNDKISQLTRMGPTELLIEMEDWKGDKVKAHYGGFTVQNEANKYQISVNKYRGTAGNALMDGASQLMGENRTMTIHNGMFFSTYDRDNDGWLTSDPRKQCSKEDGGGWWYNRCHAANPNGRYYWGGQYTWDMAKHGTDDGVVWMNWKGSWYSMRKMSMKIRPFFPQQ
Sequence (P02679 27-437 isoform P02679-2 limits assumed): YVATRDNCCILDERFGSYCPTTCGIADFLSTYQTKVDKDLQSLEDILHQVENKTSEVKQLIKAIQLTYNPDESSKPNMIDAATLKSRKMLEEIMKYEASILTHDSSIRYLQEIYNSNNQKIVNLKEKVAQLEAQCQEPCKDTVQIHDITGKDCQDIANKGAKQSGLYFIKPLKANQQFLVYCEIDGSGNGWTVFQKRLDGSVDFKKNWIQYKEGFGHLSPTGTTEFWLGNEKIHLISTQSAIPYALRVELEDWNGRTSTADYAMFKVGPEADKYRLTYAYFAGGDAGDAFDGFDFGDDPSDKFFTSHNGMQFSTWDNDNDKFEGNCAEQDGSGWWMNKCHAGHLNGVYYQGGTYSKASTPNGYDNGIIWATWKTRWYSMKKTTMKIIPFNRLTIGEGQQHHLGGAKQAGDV
Assay: Fibrin binding affinity, acellular fibrin clot assay (Hill slope model)
Details: uniform fibrin clots in PBS, read-out: dissociation constant (Kd)
quantity: Kd

{"substance": "99mTc-labeled monomer: fibrin homing peptide QWECPYGLCWIQ linked through PEG2 spacer to technetium chelating sequence HHE [^99mTc-F1A]", "result": "~10.2 µM"}
